ASSAY SYSTEM: αLβ2/ICAM-1 (Homo sapiens, UniProt P05107+P20701)
Construct: The Jurkat (VCAM-1 assays) and HSB (ICAM-1 assays) cell lines were obtained from American Type Culture Collection; endogenous in cells; host or cells: HSB (ATCC)
Sequence (P20701 26-1170): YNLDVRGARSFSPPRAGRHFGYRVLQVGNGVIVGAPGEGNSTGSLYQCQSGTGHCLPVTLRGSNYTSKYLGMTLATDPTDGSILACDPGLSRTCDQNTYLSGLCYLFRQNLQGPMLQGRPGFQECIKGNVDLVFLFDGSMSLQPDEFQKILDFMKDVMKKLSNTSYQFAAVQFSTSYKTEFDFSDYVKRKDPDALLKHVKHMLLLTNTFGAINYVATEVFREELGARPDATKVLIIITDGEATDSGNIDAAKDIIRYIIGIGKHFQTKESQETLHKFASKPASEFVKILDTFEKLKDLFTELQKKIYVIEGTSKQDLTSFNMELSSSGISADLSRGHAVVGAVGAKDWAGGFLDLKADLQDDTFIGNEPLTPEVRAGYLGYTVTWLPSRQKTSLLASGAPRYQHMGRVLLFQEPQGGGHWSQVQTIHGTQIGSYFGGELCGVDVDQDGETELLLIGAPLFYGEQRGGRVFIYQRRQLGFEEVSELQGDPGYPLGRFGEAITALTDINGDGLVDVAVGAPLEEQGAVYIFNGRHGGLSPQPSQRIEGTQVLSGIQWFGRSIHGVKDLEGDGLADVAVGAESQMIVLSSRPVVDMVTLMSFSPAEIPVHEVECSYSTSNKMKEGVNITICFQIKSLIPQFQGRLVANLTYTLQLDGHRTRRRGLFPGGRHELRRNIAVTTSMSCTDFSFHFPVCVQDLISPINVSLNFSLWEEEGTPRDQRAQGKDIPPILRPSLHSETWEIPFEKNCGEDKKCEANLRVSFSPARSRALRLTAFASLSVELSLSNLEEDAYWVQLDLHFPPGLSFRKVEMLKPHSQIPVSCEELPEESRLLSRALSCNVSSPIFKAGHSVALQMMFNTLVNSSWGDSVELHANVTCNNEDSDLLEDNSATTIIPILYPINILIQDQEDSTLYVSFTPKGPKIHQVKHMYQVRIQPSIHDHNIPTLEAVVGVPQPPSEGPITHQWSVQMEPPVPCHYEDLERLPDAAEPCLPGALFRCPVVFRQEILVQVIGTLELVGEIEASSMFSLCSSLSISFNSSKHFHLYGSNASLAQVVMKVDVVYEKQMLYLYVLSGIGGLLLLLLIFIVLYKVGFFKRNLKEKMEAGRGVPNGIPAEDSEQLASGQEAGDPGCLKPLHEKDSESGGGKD
Sequence (P05107 23-769): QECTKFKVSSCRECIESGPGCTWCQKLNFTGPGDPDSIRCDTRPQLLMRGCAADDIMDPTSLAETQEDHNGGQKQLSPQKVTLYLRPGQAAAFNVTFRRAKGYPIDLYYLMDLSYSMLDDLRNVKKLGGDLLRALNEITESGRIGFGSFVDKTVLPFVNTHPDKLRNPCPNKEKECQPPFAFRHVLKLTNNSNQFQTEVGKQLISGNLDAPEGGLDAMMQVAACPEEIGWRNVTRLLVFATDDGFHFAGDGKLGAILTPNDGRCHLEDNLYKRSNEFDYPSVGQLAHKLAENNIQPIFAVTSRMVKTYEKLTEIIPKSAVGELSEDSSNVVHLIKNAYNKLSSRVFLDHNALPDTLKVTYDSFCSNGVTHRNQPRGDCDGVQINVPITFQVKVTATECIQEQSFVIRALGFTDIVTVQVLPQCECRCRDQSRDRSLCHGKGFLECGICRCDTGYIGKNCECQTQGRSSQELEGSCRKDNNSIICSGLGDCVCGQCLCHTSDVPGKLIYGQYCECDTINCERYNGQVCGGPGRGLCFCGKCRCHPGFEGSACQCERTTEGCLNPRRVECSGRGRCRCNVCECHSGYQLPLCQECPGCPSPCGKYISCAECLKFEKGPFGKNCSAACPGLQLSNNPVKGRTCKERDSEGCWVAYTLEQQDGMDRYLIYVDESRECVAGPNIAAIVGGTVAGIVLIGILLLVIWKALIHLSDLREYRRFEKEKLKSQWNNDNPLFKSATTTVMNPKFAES
ASSAY OVERVIEW: Static cell adhesion assay, HSB cells on ICAM-1 (LFA-1; LAD)
Assay type: cell-based
MEASUREMENT CONTEXT: RFU of compound / RFU of THI0349, both at the same concentration
Record Satisfied whenever LAD Raw Fluorescence Units against LFA-1; Dose 3 µM; Ratio of raw counts Compound/THI0349 is at 0.4 or higher; record Not satisfied when lower.

Worked examples, 5 compounds total:
COMPOUND: COc1cccc(CN(Cc2cccc(OC)c2)c2nc(CN3CCOCC3)co2)c1 [Compound 81]
CLASS ASSIGNMENT: Not satisfied

COMPOUND: COc1cccc(CN(Cc2cccc(OC)c2)c2nc(COCCOc3cccc(N(C)C)c3)cs2)c1 [Compound 48]
CLASS ASSIGNMENT: Satisfied

COMPOUND: COc1cccc(CN(Cc2cccc(OC)c2)c2nc(CN3CCN(C)CC3)cs2)c1 [Compound 69]
CLASS ASSIGNMENT: Not satisfied

COMPOUND: COc1cccc(COc2cc(C)n(N(Cc3cccc(OC)c3)Cc3cccc(OC)c3)c(=O)c2)c1 [Compound 127]
CLASS ASSIGNMENT: Satisfied

COMPOUND: COc1cccc(CN(Cc2cccc(OC)c2)c2nc(COCCN3CCOCC3)co2)c1 [Compound 87]
CLASS ASSIGNMENT: Not satisfied

Could you please find out whether CCOC(=O)c1coc(N(Cc2cccc(OC)c2)Cc2cccc(OC)c2)n1 [Compound 14] has LAD Raw Fluorescence Units against LFA-1; Dose 3 µM; Ratio of raw counts Compound/THI0349 that meets 0.4 or exceeds it? Satisfied

Could you please find out whether COc1cccc(CN(Cc2ccc3ncccc3c2)c2nc(CN3CCOCC3)cs2)c1 [Compound 76] has LAD Raw Fluorescence Units against LFA-1; Dose 3 µM; Ratio of raw counts Compound/THI0349 that meets 0.4 or exceeds it? Not satisfied

Could you please find out whether COc1cccc(COCCOCCOCc2csc(N(Cc3cccc(OC)c3)Cc3cccc(OC)c3)n2)c1 [Compound 55] has LAD Raw Fluorescence Units against LFA-1; Dose 3 µM; Ratio of raw counts Compound/THI0349 that meets 0.4 or exceeds it? Satisfied

Could you please find out whether COCCOc1cccc(CN(Cc2cccc(OC)c2)c2nc(CN3CCOCC3)cs2)c1 [Compound 74] has LAD Raw Fluorescence Units against LFA-1; Dose 3 µM; Ratio of raw counts Compound/THI0349 that meets 0.4 or exceeds it? Not satisfied

Could you please find out whether COc1cccc(CN(Cc2cccc(OC)c2)c2nc(COCCOCCOc3ccc(Cl)cc3)cs2)c1 [Compound 44] has LAD Raw Fluorescence Units against LFA-1; Dose 3 µM; Ratio of raw counts Compound/THI0349 that meets 0.4 or exceeds it? Satisfied

* * *

ASSAY SYSTEM: αLβ2/ICAM-1 (Homo sapiens, UniProt P05107+P20701)
Construct: The Jurkat (VCAM-1 assays) and HSB (ICAM-1 assays) cell lines were obtained from American Type Culture Collection; endogenous in cells; host or cells: HSB (ATCC)
ASSAY OVERVIEW: Static cell adhesion assay, HSB cells on ICAM-1 (LFA-1; LAD)
Type: cell-based
MEASUREMENT CONTEXT: RFU of compound / RFU of THI0349, both at the same concentration
In this section, each of the compounds is paired with its reported LAD Raw Fluorescence Units against LFA-1; Dose 3 µM; Ratio of raw counts Compound/THI0349.
Lab note: jot the number down without any unit.

Recorded LAD Raw Fluorescence Units against LFA-1; Dose 3 µM; Ratio of raw counts Compound/THI0349, per entry:
COMPOUND: COc1ccc(CN(Cc2ccc(OC)cc2)c2nc(COCCOCCOCc3csc(N(Cc4ccc(OC)cc4)Cc4ccc(OC)cc4)n3)cs2)cc1 [Compound 35]
READOUT VALUE: 0.98
--
COMPOUND: COc1cccc(CN(Cc2cccc(OC)c2)c2nc(COCCOCCOCc3ccccc3)cs2)c1 [Compound 53]
READOUT VALUE: 1.06
--
COMPOUND: COc1cccc(CN(Cc2cccc(OC)c2)c2nc(COCCOCCN3CCOCC3)cs2)c1 [Compound 61]
READOUT VALUE: 1.9
--
COMPOUND: COc1ccc(CCCNC(=O)c2cnc(N(Cc3cccc(OC)c3)Cc3cccc(OC)c3)o2)cc1 [Compound 22]
READOUT VALUE: 0.69
--
COMPOUND: COc1cccc(CN(Cc2cccc(OC)c2)c2nc(COCCOCc3ccccc3C)cs2)c1 [Compound 60]
READOUT VALUE: 0.92
--
COMPOUND: COc1cccc(CN(Cc2cccc(OC)c2)c2nc(COCCOc3ccc(Cl)cc3)cs2)c1 [Compound 49]
READOUT VALUE: 0.63
--
COMPOUND: COc1cccc(CN(Cc2cccc(OC)c2)c2nc(COCCN3CCCCC3)cs2)c1 [Compound 65]
READOUT VALUE: 0.29
--
COMPOUND: COc1cccc(CN(Cc2cccc(OC)c2)c2nc(COCCOCCOc3ccccc3)cs2)c1 [Compound 43]
READOUT VALUE: 0.80

Determine from records and report LAD Raw Fluorescence Units against LFA-1; Dose 3 µM; Ratio of raw counts Compound/THI0349 for COc1ccc(CCCNC(=O)c2coc(N(Cc3cccc(OC)c3)Cc3cccc(OC)c3)n2)cc1 [Compound 20] 0.19

Determine from records and report LAD Raw Fluorescence Units against LFA-1; Dose 3 µM; Ratio of raw counts Compound/THI0349 for CCOC(=O)c1ccc(N(Cc2cccc(OC)c2)Cc2cccc(OC)c2)cc1 [Compound 85] 0.03

Determine from records and report LAD Raw Fluorescence Units against LFA-1; Dose 3 µM; Ratio of raw counts Compound/THI0349 for COc1cccc(CN(Cc2cccc(OC)c2)c2nc(C)cs2)c1 [Compound 29] 0.88

Determine from records and report LAD Raw Fluorescence Units against LFA-1; Dose 3 µM; Ratio of raw counts Compound/THI0349 for COc1cccc(COCc2cccc(N(Cc3cccc(OC)c3)Cc3cccc(OC)c3)c2)c1 [Compound 90] 0.09

Measured values drawn from patent US20240360113A1 for this set.
